B1: SLC35F2 (parent)
chain: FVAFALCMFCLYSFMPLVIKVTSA

variants of: B1; assay: protein stability index of a GFP-peptide fusion (GPS, HEK-293T) (PSI 1-6); higher = more stable; conditions: c terminus: a fixed tail appended;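 further: lentivirally expressed fusions sorted by FACS into six bins by GFP to DsRed ratio, PSI derived from sequencing read proportions per bin multiplied by bin number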
What protein stability index was measured for each of the following?
Give only the figure.

Enquiry: Quick one: protein stability index for T22F ?
Return: 2.36

Enquiry: Moving on to S23F
Return: 3.51

Enquiry: Moving on to M8C
Return: 2.4

Enquiry: Moving on to A24D
Return: 2.65

Enquiry: Moving on to P16F
Return: 2.59

Enquiry: Moving on to L6G
Return: 2.14

Enquiry: Moving on to M8V
Return: 3.38

Enquiry: Moving on to T22I
Return: 2.71

Enquiry: Moving on to M15R
Return: 2.98

Enquiry: Moving on to M8E
Return: 3.62

Enquiry: Moving on to K20S
Return: 2.55

Enquiry: Moving on to M8Q
Return: 2.57

Enquiry: Moving on to Y12L
Return: 2.5

Enquiry: Moving on to T22H
Return: 3.96

Enquiry: Moving on to S13E
Return: 3.17

Enquiry: Moving on to L6K
Return: 2.38

Enquiry: Moving on to V2D
Return: 2.14

Enquiry: Moving on to A24I
Return: 2.65

Enquiry: Moving on to A3N
Return: 2.43

Enquiry: Moving on to F14H
Return: 3.63

Enquiry: Moving on to F4H
Return: 2.26

Enquiry: Moving on to I19D
Return: 2.73

Recorded values, source the supplement of paper PMC10567573.
